The measured values listed here are drawn from paper PMC8881063.

The entries below come with measured pIC50 values attached.
assayed target: recombinant human MAO-A (Homo sapiens, UniProt P21397)
protocol description: hMAO-A inhibition, spectrophotometric assay
Type: biochemical
pIC50: −log10 of the molar value.

Name the reported pIC50 value associated with the compound COc1cccc(/C=C2\Oc3cc(O)ccc3C2=O)c1
< 4.00

# pIC50 lookup, item O=C1/C(=C/c2ccccc2O)Oc2cc(O)ccc21
< 5.00

Recorded pIC50 of COc1cc(/C=C2\Oc3cc(O)ccc3C2=O)cc(OC)c1 , please.
< 5.00

Item under review: COc1cccc(/C=C2\Oc3cc(OC)ccc3C2=O)c1 . Reported pIC50?
< 4.00

// below: pIC50 requested for another compound
Given O=C1/C(=C/c2ccc(O)cc2)Oc2cc(O)ccc21 [Hispidol, hispidol, reference compound] , state its recorded pIC50.
5.28

====

assayed target: recombinant human MAO-A (Homo sapiens, UniProt P21397)
Sequence (P21397 1-527): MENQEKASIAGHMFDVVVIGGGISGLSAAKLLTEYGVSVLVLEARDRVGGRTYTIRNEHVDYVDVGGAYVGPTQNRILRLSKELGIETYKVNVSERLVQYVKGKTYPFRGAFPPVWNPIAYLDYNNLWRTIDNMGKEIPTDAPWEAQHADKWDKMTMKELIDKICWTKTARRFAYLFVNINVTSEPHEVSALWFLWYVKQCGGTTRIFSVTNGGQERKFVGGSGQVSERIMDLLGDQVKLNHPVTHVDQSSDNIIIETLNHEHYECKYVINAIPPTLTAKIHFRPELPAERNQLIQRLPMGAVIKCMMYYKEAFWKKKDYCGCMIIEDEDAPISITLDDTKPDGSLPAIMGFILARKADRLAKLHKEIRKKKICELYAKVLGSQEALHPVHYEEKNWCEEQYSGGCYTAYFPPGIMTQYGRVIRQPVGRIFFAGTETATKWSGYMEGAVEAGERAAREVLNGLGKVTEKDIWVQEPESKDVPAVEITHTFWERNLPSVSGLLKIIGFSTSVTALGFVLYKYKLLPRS
protocol description: hMAO-A inhibition, spectrophotometric assay
Assay type: biochemical
measurement context: single dose concentration of 10 µM
reported property: inhibition at 10 µM (%)
Give a bare numeral; the unit % is implied.

Worked set:
Missing value: inhibition at 10 µM, recombinant human MAO-A (Homo sapiens, UniProt P21397), entry COc1cc(/C=C2\Oc3cc(O)ccc3C2=O)cc(OC)c1 . Fill in?
0.37

Any idea what inhibition at 10 µM came out for COc1cccc(/C=C2\Oc3cc(O)ccc3C2=O)c1 on recombinant human MAO-A (Homo sapiens, UniProt P21397)?
7.43

Fill in the recorded inhibition at 10 µM for this compound, with recombinant human MAO-A (Homo sapiens, UniProt P21397) as test system: COc1ccc2c(c1)O/C(=C\c1ccccc1OC)C2=O
21.6

Query inhibition at 10 µM on recombinant human MAO-A (Homo sapiens, UniProt P21397) for COc1ccc2c(c1)O/C(=C\c1ccc(O)cc1O)C2=O
55.7

Then there is this compound:
For the record COc1ccc(/C=C2\Oc3cc(O)ccc3C2=O)c(OC)c1OC , what value of inhibition at 10 µM is listed for recombinant human MAO-A (Homo sapiens, UniProt P21397)?
-1.53

====

assayed target: recombinant human MAO-A (Homo sapiens)
Sequence (P21397 1-527): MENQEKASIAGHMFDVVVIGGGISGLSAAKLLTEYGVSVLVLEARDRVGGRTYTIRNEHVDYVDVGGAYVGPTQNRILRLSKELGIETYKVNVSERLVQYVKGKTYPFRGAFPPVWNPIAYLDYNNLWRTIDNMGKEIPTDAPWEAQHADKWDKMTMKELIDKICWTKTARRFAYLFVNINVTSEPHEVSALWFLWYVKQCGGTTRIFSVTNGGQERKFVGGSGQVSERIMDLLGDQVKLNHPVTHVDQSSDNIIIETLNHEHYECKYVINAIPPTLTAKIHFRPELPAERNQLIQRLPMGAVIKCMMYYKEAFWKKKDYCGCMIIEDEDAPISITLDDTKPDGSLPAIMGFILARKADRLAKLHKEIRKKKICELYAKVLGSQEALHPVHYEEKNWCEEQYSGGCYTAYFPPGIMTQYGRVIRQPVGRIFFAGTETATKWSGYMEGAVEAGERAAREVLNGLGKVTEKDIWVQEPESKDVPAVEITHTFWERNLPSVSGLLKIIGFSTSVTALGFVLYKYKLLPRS
protocol description: hMAO-A inhibition, spectrophotometric assay
Assay type: biochemical
measurement context: single dose concentration of 10 µM
Note to self: values exactly at 8% are class 1. So inhibition at 10 µM at or above 8% is class 1, below is class 0.

For orientation, consider the following solved cases.
Entry COc1ccc2c(c1)O/C(=C\c1ccccc1O)C2=O : is its inhibition at 10 µM no less than 8%?
class 0

Exam item: decide whether the reported inhibition at 10 µM for O=C1/C(=C/c2cc(O)cc(O)c2)Oc2cc(O)ccc21 is at least 8%.
class 1

For this compound, is measured inhibition at 10 µM 8% or higher? COc1ccccc1/C=C1\Oc2cc(O)ccc2C1=O
class 0

Can O=C1/C(=C/c2cc(O)ccc2O)Oc2cc(O)ccc21 be said to have inhibition at 10 µM at or above 8%?
class 1

Has COc1ccc2c(c1)O/C(=C\c1cccc(O)c1)C2=O a recorded inhibition at 10 µM greater than or equal to 8%?
class 0

---
Decide: inhibition at 10 µM of COCOc1ccc(/C=C2\Oc3cc(O)ccc3C2=O)cc1 >= 8%?
class 1

Hello, I need to know if COc1cccc(/C=C2\Oc3cc(OC)ccc3C2=O)c1 has measured inhibition at 10 µM not below 8%. Thanks!
class 0

I'd appreciate it if you could say whether COc1ccc(/C=C2\Oc3cc(O)ccc3C2=O)cc1OC has inhibition at 10 µM at least equal to 8%.
class 0

====

assayed target: recombinant human MAO-A (Homo sapiens, UniProt P21397)
protocol description: hMAO-A inhibition, spectrophotometric assay
pIC50: −log10 of the molar value.
Entries and their pIC50 values follow.

Give pIC50 (recombinant human MAO-A (Homo sapiens, UniProt P21397)) of the following compound: COc1ccc(/C=C2\Oc3cc(O)ccc3C2=O)c(OC)c1OC
< 4.00

Notebook: pull reported pIC50 for recombinant human MAO-A (Homo sapiens, UniProt P21397), entry COc1ccc2c(c1)O/C(=C\c1ccccc1O)C2=O
< 5.00

Continuing:
Form field: pIC50 recorded for O=C1/C(=C/c2ccc(O)cc2O)Oc2cc(O)ccc21 with recombinant human MAO-A (Homo sapiens, UniProt P21397) (enter value)
< 5.00

Record COc1ccc2c(c1)O/C(=C\c1ccccc1OC)C2=O : what is its pIC50 with recombinant human MAO-A (Homo sapiens, UniProt P21397)?
< 4.00

Return pIC50 measured with recombinant human MAO-A (Homo sapiens, UniProt P21397) given this compound: O=C1/C(=C/c2cccc(O)c2)Oc2cc(O)ccc21
< 5.00

Could you share what pIC50 was measured for COc1cccc(/C=C2\Oc3cc(O)ccc3C2=O)c1OC , tested on recombinant human MAO-A (Homo sapiens, UniProt P21397)?
< 4.00
